Biological target: Ba/F3 cells containing Ros1 wild-type protein (Homo sapiens, UniProt P08922, cells depend on it, form not given)
Construct: The background only speaks of 'a number of different unrelated proteins' and names SLC34A2-ROS1 for HCC78 cells
Sequence (P08922 whole entry, stated change not applied): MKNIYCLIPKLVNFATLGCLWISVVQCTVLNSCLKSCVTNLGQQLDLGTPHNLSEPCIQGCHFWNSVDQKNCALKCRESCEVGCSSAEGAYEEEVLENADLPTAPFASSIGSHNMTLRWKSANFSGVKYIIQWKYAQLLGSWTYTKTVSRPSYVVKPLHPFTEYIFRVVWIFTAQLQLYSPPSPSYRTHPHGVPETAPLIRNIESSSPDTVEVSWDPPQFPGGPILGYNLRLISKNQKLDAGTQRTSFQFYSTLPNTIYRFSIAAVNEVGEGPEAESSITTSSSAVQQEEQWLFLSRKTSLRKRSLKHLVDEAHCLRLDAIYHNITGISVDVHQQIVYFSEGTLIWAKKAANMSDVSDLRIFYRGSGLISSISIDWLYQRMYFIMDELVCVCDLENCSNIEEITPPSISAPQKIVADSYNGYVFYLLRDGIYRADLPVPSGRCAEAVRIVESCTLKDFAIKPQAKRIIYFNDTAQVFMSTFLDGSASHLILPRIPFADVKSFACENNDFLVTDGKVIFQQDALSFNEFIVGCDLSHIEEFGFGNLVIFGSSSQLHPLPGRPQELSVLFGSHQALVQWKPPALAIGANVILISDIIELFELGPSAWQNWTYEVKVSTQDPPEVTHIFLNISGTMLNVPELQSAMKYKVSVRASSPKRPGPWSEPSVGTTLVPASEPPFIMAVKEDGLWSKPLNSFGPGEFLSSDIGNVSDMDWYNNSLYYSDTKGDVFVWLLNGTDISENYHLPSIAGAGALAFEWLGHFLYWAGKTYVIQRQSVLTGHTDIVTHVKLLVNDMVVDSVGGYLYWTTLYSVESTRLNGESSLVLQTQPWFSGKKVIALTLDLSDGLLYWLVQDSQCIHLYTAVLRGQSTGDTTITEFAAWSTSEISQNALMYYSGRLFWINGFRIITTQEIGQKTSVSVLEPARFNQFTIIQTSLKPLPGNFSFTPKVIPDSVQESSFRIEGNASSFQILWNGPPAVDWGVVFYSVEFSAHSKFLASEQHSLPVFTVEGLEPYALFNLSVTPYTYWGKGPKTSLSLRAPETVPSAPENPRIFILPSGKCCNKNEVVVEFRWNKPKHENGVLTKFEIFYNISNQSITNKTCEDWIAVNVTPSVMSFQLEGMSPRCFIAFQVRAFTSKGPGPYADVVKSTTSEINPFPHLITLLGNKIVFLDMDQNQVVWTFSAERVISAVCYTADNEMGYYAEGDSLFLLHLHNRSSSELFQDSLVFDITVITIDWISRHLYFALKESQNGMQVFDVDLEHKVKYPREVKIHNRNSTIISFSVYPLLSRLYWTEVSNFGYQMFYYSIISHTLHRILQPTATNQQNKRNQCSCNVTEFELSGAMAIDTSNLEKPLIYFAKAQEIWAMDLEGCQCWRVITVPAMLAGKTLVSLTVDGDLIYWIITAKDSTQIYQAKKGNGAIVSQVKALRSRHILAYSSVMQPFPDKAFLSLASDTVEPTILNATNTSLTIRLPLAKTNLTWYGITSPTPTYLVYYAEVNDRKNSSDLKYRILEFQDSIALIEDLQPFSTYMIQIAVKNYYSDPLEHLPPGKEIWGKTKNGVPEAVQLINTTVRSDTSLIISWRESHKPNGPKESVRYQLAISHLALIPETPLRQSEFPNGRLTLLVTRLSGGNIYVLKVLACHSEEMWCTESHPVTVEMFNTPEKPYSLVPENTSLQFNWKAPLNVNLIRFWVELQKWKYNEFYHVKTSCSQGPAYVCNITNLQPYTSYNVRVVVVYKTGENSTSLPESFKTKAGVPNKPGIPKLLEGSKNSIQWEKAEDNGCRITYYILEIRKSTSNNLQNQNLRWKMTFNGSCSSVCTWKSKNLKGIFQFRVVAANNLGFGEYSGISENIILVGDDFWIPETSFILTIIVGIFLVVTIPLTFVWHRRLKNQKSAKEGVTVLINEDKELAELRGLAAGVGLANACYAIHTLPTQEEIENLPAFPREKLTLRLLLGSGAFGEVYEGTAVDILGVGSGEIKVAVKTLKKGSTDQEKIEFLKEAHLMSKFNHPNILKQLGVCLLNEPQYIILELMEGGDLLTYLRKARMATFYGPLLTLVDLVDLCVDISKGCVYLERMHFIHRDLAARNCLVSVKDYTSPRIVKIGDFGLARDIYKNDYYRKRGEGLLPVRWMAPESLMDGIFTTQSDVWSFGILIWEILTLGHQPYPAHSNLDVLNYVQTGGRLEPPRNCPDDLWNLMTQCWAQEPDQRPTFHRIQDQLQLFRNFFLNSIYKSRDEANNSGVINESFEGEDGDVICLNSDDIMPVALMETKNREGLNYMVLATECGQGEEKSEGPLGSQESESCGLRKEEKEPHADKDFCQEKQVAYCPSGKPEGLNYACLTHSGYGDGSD
Test: Ba/F3-Ros1 cell proliferation assay, wild-type Ros1
Format: cell-based, murine
Settings: without IL-3
measure: BaF3-ROS1-IL3 pIC50
Answer with a number only.

Sample answers from the record:
{"columns": ["molecule", "result"],
 "data": [
  ["O=C1c2c(-c3ccc(OCc4ccc(C5CC5)nc4)cc3F)c(-c3ccncc3)nn2CCN1CCO [Compound 207]", 7.1],
  ["CC(C)c1ccc(COc2ccc(-c3c(-c4ccncc4)nn4c3C(=O)N(CC3CNC(=O)O3)CC4)cc2)cc1 (stereo not shown) [Compound 56]", 7.5],
  ["COc1cc(-c2c(-c3ccnc(N)c3)nn3c2C(=O)N(C)CC3)ccc1OCc1ccc(C(C)C)cc1 [Compound 150]", 7.6]
]}

INPUT: Item CC(C)c1ncc(COc2ccc(-c3c(-c4ccncc4)nn4c3C(=O)NCC4)cc2)cn1 [Compound 103] : provide BaF3-ROS1-IL3 pIC50
OUTPUT: 6.0
